Test system: MDA-N
TEST METHOD NOTES: NCI tumour cell line growth inhibition, 48 h
Calls of active or inactive are those of the source. No stated cut-off is given here; in the data, active = GI50 up to about 1.1 µM and inactive = higher.
READOUT LABEL: GI50

COMPOUND	DATA VALUE
Cc1ccc(CC[PH](=O)CCc2ccc(C)nc2)cn1	> 100 µM (inactive)
c1ccc(CC2COC(c3cccs3)=N2)cc1 (stereo not given)	> 100 µM (inactive)
COC(=O)C1=COC2OC3CC1C2C(C)O3 (stereo not given)	> 100 µM (inactive)
CNC1=CC(=O)C2=C(C1=O)[C@H]1CC[C@]3(C)C(=O)CC[C@H]3[C@@H]1CC2	8.17 µM (inactive)
CC(C)Oc1cc2c(cc1O)CC[C@@H]1[C@@H]2CC[C@]2(C)[C@@H](O)CC[C@@H]12	0.424 µM (active)
O=Cc1cc2c(cc1-c1c(C=O)ccc3c1OCO3)OCO2	> 10 µM (inactive)
COc1cccc(C2c3cc4c(cc3OC(Nc3ccccc3)C2C)OCO4)c1O (stereo not given)	2.42 µM (inactive)
O=NN(CCCl)C(=O)NC1CCC(=O)NC1=O (stereo not given)	224 µM (inactive)
CC1=CC(=O)C[C@]2(C)[C@@H](O)CC(C(C)CO)C[C@@H]12 (stereo not given in full)	> 100 µM (inactive)
O=C(O)CC(CC(=O)O)n1cccc1	> 100 µM (inactive)
O=c1[nH]c2ccccc2n1CCCN1CCC(n2c(=O)[nH]c3cc(Cl)ccc32)CC1	15.8 µM (inactive)
O=C1CC(Cl)c2c(Cl)sc(Cl)c21 (stereo not given)	2.32 µM (inactive)
CC(=O)OCC12C(OC(C)=O)C[C@@H](C)C3(CC(c4ccoc4)OC3=O)C1CCC(O)C21CO1 (stereo not given in full)	> 100 µM (inactive)
COc1ccc(S(=O)(=O)N2C(=O)CCC2C(=O)NC(N)=O)cc1 (stereo not given)	> 100 µM (inactive)
C=CCOC(=O)N1c2ccc(O[Si](C)(C)C(C)(C)C)cc2[C@@]23O[C@@]24[C@@H]1C#C/C=C\C#C[C@]3(O)C(OC)(OC)C[C@@H]4C	> 57.5 µM (inactive)
O=C(/C=C/c1ccco1)c1cccc(C(=O)/C=C/c2ccco2)n1	10.7 µM (inactive)
Cc1cc2c(cc1-c1cc3c(cc1C)C(C(C)C)=C(O)C(=O)/C3=C\Nc1cccc3c(N)cccc13)/C(=C/Nc1cccc3c(N)cccc13)C(=O)C(O)=C2C(C)C	> 100 µM (inactive)
COC12OC3CC4(C)C(=CC3OC(OC(C)C1O)C2O)CCC1C4CCC2(C)C(c3ccc(=O)oc3)CCC12O (stereo not given)	0.00215 µM (active)
CC1=Nc2c(C#N)ncn2N=C(C)C1	> 100 µM (inactive)
CC(C)CCCC(C)[C@H]1CC[C@H]2n3c(nnc3-c3ccccc3)CCC[C@]12C (stereo not given in full)	13.6 µM (inactive)
COc1ccc(-c2c(-c3ccccc3)c(C)nc3nc(SC)nc(SC)c23)cc1OC	8.99 µM (inactive)
Cc1ccc(/N=C2\SC(=S)N(CCC[N+](C)(C)C)\C2=N/c2ccc(C)cc2)cc1	12.8 µM (inactive)
C[C@H]1C(=O)O[C@@H]2CCN3CC=C(COC(=O)[C@](C)(O)[C@@]1(C)O)[C@H]23	> 100 µM (inactive)
COc1ccc(/C=C2/NC(=S)N=C2Cl)cc1	> 100 µM (inactive)
C=C[C@H]1CN2CC[C@H]1C[C@@H]2[C@@H](O)c1ccnc2ccccc12	> 100 µM (inactive)
S=C(N/N=C\C(=N/NC(=S)N1CCCCC1)c1ccccc1)N1CCCCC1	2.89 µM (inactive)
CNC(=O)CNC(=O)CCC(=O)OC	> 100 µM (inactive)
CCN(CC)S(=O)(=O)c1ccc2[nH]c(NC(=O)OC)nc2c1	18.5 µM (inactive)
NC(CSc1nc2ccccn2c1[N+](=O)[O-])C(=O)O (stereo not given)	> 100 µM (inactive)
O=C1CC(=O)NC(NN2C(=O)CSC2c2ccc(Cl)c(Cl)c2)=N1 (stereo not given)	82.8 µM (inactive)
